Molecular target: NDM-1 (Klebsiella pneumoniae, UniProt C7C422)
Sequence (C7C422 whole entry, looked up, species assumed): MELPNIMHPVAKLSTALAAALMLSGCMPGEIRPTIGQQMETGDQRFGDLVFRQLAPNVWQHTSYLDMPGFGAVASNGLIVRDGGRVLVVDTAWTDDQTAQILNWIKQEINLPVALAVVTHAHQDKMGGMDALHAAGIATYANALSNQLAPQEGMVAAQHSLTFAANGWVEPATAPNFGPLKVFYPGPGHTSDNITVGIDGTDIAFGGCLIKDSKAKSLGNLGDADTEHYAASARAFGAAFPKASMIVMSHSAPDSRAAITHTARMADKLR
Assay: metallo-β-lactamase inhibition assay (nitrocefin)
Conditions: 1.5 nM NDM-1, 100 μM nitrocefin, 37° C., pH 7.5
Where a name gives a salt, the structure may show the parent alone.
Listing of entries alongside the reported IC50.

Molecule	IC50
CNCCN(C)C(=O)C1CCC(c2ccn(S(N)(=O)=O)c2C(=O)O)CC1 (stereo not drawn)	248 nM
NCC(=O)Nc1ccc(-c2ccn(S(N)(=O)=O)c2C(=O)O)cn1 [Example 93, sodium salt]	162 nM
NC1CN(C(=O)c2ccc(-c3ccn(S(N)(=O)=O)c3C(=O)O)cc2)C1	78 nM
NS(=O)(=O)n1ccc(-c2ccc(C(=O)NCCN3CCCC3=O)cc2)c1C(=O)O	623 nM

Exercise: Recall the recorded IC50 for N[C@@H](CO)C(=O)N1CCC(c2ccn(S(N)(=O)=O)c2C(=O)O)CC1 with NDM-1 (Klebsiella pneumoniae, UniProt C7C422) and state it.
Key: 1570 nM

Exercise: Recall the recorded IC50 for NC1CN(C(=O)c2cccc(-c3ccn(S(N)(=O)=O)c3C(=O)O)c2)C1 with NDM-1 (Klebsiella pneumoniae, UniProt C7C422) and state it.
Key: 3330 nM

---

Listing of entries alongside the reported IC50.
Target: NDM-1 (Klebsiella pneumoniae)
Assay: metallo-β-lactamase inhibition assay (nitrocefin)
Details: 1.5 nM NDM-1, 100 μM nitrocefin, 37° C., pH 7.5

Exercise: Recall the recorded IC50 for NS(=O)(=O)n1ccc(C2CCN(C(=O)C3CNC3)CC2)c1C(=O)O with NDM-1 (Klebsiella pneumoniae) and state it.
Key: 1550 nM

Exercise: Recall the recorded IC50 for NS(=O)(=O)n1ccc(-c2ccc(C(=O)N[C@@H]3CCNC[C@H]3O)cc2)c1C(=O)O with NDM-1 (Klebsiella pneumoniae) and state it.
Key: 652 nM

---

Molecular target: NDM-1 (Klebsiella pneumoniae, UniProt C7C422)
Test: metallo-β-lactamase inhibition assay (nitrocefin)
Settings: 1.5 nM NDM-1, 100 μM nitrocefin, 37° C., pH 7.5
pIC50: −log10 of the molar value. Where a name gives a salt, the structure may show the parent alone.
Classify as follows. Reported pIC50 greater than or equal to 6: 1. Reported pIC50 below: -1.

Examples with answers:
Compound	Target Desc	Qualitative Label
NS(=O)(=O)n1ccc(-c2ccc(C(=O)N3CCNCC3)cc2)c1C(=O)O	NDM-1 (Klebsiella pneumoniae, UniProt C7C422)	1
NCCC(=O)Nc1ccc(-c2ccn(S(N)(=O)=O)c2C(=O)O)cn1 [Example 94, sodium salt]	NDM-1 (Klebsiella pneumoniae, UniProt C7C422)	-1
CNC(=O)c1cccc(-c2ccn(S(N)(=O)=O)c2C(=O)O)c1	NDM-1 (Klebsiella pneumoniae, UniProt C7C422)	1
NCCN1CCC(c2ccn(S(N)(=O)=O)c2C(=O)O)CC1	NDM-1 (Klebsiella pneumoniae, UniProt C7C422)	1

// switching to the query compound
Exercise: Determine whether this compound has pIC50 no lower than 6: NS(=O)(=O)n1ccc(-c2ccc(C(=O)NCCN3CCOCC3)cc2)c1C(=O)O
Key: -1

---

Target: NDM-1 (Klebsiella pneumoniae, UniProt C7C422)
Test: metallo-β-lactamase inhibition assay (nitrocefin)
Type: biochemical
Details: 1.5 nM NDM-1, 100 μM nitrocefin, 37° C., pH 7.5
Counter-ions that a name gives are not always drawn.
Decide using IC50 alone. Strictly below 400 nM: YES. Equal to or above 400 nM: NO.

Molecule	Qualitative Label
NCC(=O)N1CCCC(c2ccn(S(N)(=O)=O)c2C(=O)O)C1 (stereo not drawn) [Example 63]	NO
CN(C)C(=O)c1ccc(-c2ccn(S(N)(=O)=O)c2C(=O)O)cc1 [Example 2]	YES
CN(C)CCNC(=O)c1ccc(-c2ccn(S(N)(=O)=O)c2C(=O)O)cc1 [Example 9]	YES

Exercise: Problem: For the molecule N#CCNC(=O)c1ccc(-c2ccn(S(N)(=O)=O)c2C(=O)O)cc1 [Example 6] , is IC50 under 400 nM?
Key: NO

Exercise: Problem: For the molecule CC(=O)N1CCC(c2ccn(S(N)(=O)=O)c2C(=O)O)C1 (stereo not drawn) [Example 59] , is IC50 under 400 nM?
Key: NO

Exercise: Problem: For the molecule NS(=O)(=O)n1ccc(-c2ccc(C(=O)NC[C@@H](O)CO)cc2)c1C(=O)O [Example 13] , is IC50 under 400 nM?
Key: NO

Exercise: Problem: For the molecule NS(=O)(=O)n1ccc(-c2ccc(C(=O)NCCCO)cc2)c1C(=O)O [Example 11] , is IC50 under 400 nM?
Key: NO

Exercise: Problem: For the molecule NCCNC(=O)c1cccc(-c2ccn(S(N)(=O)=O)c2C(=O)O)c1 [Example 47, hydrochloride] , is IC50 under 400 nM?
Key: YES

Exercise: Problem: For the molecule NS(=O)(=O)n1ccc(-c2ccc(C(=O)NC(CO)CO)cc2)c1C(=O)O [Example 12] , is IC50 under 400 nM?
Key: NO

Exercise: Problem: For the molecule NCC1CCN(C(=O)c2ccc(-c3ccn(S(N)(=O)=O)c3C(=O)O)cc2)CC1 [Example 44] , is IC50 under 400 nM?
Key: YES

Exercise: Problem: For the molecule CCNCCNC(=O)c1ccc(-c2ccn(S(N)(=O)=O)c2C(=O)O)cc1 [Example 32] , is IC50 under 400 nM?
Key: NO

Exercise: Problem: For the molecule NS(=O)(=O)n1ccc(-c2ccc(C(=O)NCC(=O)O)cc2)c1C(=O)O [Example 7] , is IC50 under 400 nM?
Key: NO

Exercise: Problem: For the molecule NS(=O)(=O)n1ccc(-c2ccc(C(=O)N[C@H]3[C@@H]4CNC[C@@H]43)cc2)c1C(=O)O [Example 43] , is IC50 under 400 nM?
Key: YES
